system tested: UniProtKB P26718
method description: Inhibition of NKG2D (unknown origin)/MICA (unknown origin) protein-protein interaction by cell-based TR-FRET assay
pIC50: −log10 of the molar value.
Tag: t if measured pIC50 is not below 6, f if it is.

Q: Please indicate if the recorded pIC50 for `O=C(NCc1cccc(C(F)(F)F)c1)c1ccccc1-c1ccc(C(F)(F)F)cc1` meets or exceeds 6.
A: f

Q: Would you say `Cc1n[nH]c(C)c1-c1ccc(-c2ccc(C(F)(F)F)cc2)c(C(=O)N[C@H](C(=O)N(C)C)c2cccc(C(F)(F)F)c2)c1` shows pIC50 at minimum 6?
A: t

Q: Record `CN(C)C(=O)[C@@H](NC(=O)c1ccccc1-c1ccc(C(F)(F)F)cc1)c1cccc(C2CC2)c1` ; criterion: pIC50 no lower than 6. Met?
A: f

Q: Check this compound for pIC50 at or above 6: `O=C(N[C@H](C(=O)N1C[C@@H]2[C@H](CO)[C@@H]2C1)c1cccc(C(F)(F)F)c1)c1ccccc1-c1ccc(C(F)(F)F)cc1`
A: f

Q: I'd appreciate it if you could say whether O=C(NC(C(=O)N1CCC1)c1cccc(C(F)(F)F)c1)c1ccccc1-c1ccc(C(F)(F)F)cc1 (racemic) has pIC50 at least equal to 6.
A: f

Q: Please tell me: is the compound CN(C)C(=O)C(NC(=O)c1ccccc1-c1ccc(C(F)(F)F)cc1)c1cccc(C(F)(F)F)c1 (racemic) at or over 6 in terms of pIC50?
A: f

Q: Decide: pIC50 of `CN(C)C(=O)[C@@H](NC(=O)c1cnccc1-c1ccc(C(F)(F)F)cc1)c1cc(Cl)cc(C(F)(F)F)c1` >= 6?
A: t

Q: API: above_or_equal(metric=pIC50, cutoff=6) for item `CN(C)C(=O)[C@@H](NC(=O)c1nnccc1-c1ccc(C(F)(F)F)cc1)c1cccc(C(F)(F)F)c1`
A: t

Q: Is it the case that `Cc1cc([C@H](NC(=O)c2cnccc2-c2ccc(C(F)(F)F)cc2)C(=O)N(C)C)cc(C(F)(F)F)c1` has pIC50 reaching or exceeding 6?
A: t

Q: Is pIC50 for CN(C)C(=O)C(NC(=O)c1cccnc1-c1ccc(C(F)(F)F)cc1)c1cccc(C(F)(F)F)c1 (racemic) at or above 6?
A: f

Q: Check if pIC50 >= 6 (inclusive). Item: `CN(C)C(=O)[C@@H](NC(=O)c1cnccc1-c1ccc(C(F)(F)F)cc1)c1cc(F)cc(C(F)(F)F)c1`
A: t

Q: Hello, I need to know if `CN(C)C(=O)[C@@H](NC(=O)c1ccncc1-c1ccc(C(F)(F)F)cc1)c1cccc(C(F)(F)F)c1` has measured pIC50 not below 6. Thanks!
A: f

Q: Has `CN(C)C(=O)[C@@H](NC(=O)c1ccccc1-c1ccc(C(F)(F)F)cc1)c1ccc(Cl)cc1` a recorded pIC50 greater than or equal to 6?
A: f

Q: Identify whether the reported pIC50 of the following compound is 6 or greater: CN(C)C(=O)C(NC(=O)c1ccccc1-c1ccccc1)c1cccc(C(F)(F)F)c1 (stereo unspecified)
A: f

Q: Decide: is the reported value of pIC50 for O=C(NC(C(=O)N1CC[C@H](CO)C1)c1cccc(C(F)(F)F)c1)c1ccccc1-c1ccc(C(F)(F)F)cc1 (stereo partly specified) equal to or greater than 6?
A: f

Q: Could you please find out whether CN(C)C(=O)C(NC(=O)c1ccc(-c2ccc(C(F)(F)F)cc2)cc1)c1cccc(C(F)(F)F)c1 (stereo unspecified) has pIC50 that meets 6 or exceeds it?
A: f

Q: API: above_or_equal(metric=pIC50, cutoff=6) for item `CN(C)C(=O)[C@@H](NC(=O)c1cnccc1-c1ccc(C(F)(F)F)cc1)c1ccc(F)c(C(F)(F)F)c1`
A: t

Q: Please tell me: is the compound `Cc1ccc([C@H](NC(=O)c2cnccc2-c2ccc(C(F)(F)F)cc2)C(=O)N(C)C)cc1C(F)(F)F` at or over 6 in terms of pIC50?
A: t

Q: Determine whether measured pIC50 meets or exceeds 6 for CN(C)C(=O)C(NC(=O)c1cc(-c2ccnn2C2COC2)ccc1-c1ccc(C(F)(F)F)cc1)c1cccc(C(F)(F)F)c1 (racemic)
A: t

Q: In plain terms: is recorded pIC50 at least 6 for CN(C)C(=O)C(c1cccc(C(F)(F)F)c1)N(C)C(=O)c1ccccc1-c1ccc(C(F)(F)F)cc1 (stereo unspecified) ?
A: f

Q: Say whether CN(C)C(=O)[C@@H](NC(=O)c1ccccc1-c1ccc(C(F)(F)F)cc1)c1ccccc1 (racemic) shows pIC50 of 6 or more.
A: f

Q: In plain terms: is recorded pIC50 at least 6 for `CN(C)C(=O)[C@@H](NC(=O)c1ccccc1-c1ccc(C(F)(F)F)cc1)c1ccc(Cl)c(C(F)(F)F)c1` ?
A: t

Q: I'd appreciate it if you could say whether `CN(C)C(=O)[C@@H](NC(=O)c1ccccc1-c1ccc(C(F)(F)F)cc1)c1cccc(N2CC(CC(F)(F)F)C2)c1` has pIC50 at least equal to 6.
A: f

Q: Form field: pIC50 at least 6? Entry: `CN(C)C(=O)[C@@H](NC(=O)c1cc(-c2nnn[nH]2)ccc1-c1ccc(C(F)(F)F)cc1)c1cccc(C(F)(F)F)c1`
A: t

Q: Is reported pIC50 greater than or equal to 6 here: `CN(C)C(=O)CNC(=O)c1ccccc1-c1ccc(C(F)(F)F)cc1`
A: f

Q: Quick check, pIC50 >= 6? `CN(C)C(=O)[C@@H](NC(=O)c1cnccc1-c1ccc(C(F)(F)F)cc1)c1cc(Cl)c(Cl)c(C(F)(F)F)c1`
A: t

Q: Does pIC50 meet or surpass 6 for `CN(C)C(=O)[C@@H](NC(=O)c1cc(-c2ccnn2C)ccc1-c1ccc(C(F)(F)F)cc1)c1cccc(C(F)(F)F)c1` ?
A: t

Q: Is the recorded value of pIC50 equal to or greater than 6 for this compound? CC1(C)C[C@H](CO)N(C(=O)C(NC(=O)c2ccccc2-c2ccc(C(F)(F)F)cc2)c2cccc(C(F)(F)F)c2)C1 (stereo partly specified)
A: f

###

system tested: NKGD2-ULBP6 (Homo sapiens, UniProt P26718)
Sequence (P26718 whole entry): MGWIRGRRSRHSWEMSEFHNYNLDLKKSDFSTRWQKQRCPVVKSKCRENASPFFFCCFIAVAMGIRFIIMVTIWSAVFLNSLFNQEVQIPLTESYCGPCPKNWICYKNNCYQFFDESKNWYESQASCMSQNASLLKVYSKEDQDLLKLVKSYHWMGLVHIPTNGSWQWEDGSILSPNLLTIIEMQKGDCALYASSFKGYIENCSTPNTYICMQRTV
Sequence (Q5VY80 whole entry): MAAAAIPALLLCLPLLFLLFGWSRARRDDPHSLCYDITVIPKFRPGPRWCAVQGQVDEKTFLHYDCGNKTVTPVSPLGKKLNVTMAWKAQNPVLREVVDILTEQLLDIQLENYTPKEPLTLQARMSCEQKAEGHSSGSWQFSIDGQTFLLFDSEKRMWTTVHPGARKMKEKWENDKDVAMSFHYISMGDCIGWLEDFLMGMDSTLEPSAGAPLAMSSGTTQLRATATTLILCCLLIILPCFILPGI
method description: Inhibition of NKG2D (unknown origin)/ULBP6 (unknown origin) protein-protein interaction by cell-based TR-FRET assay
Provide the reported IC50 of each item.
Numbers only; they are read as nM.

Q: Dear colleague, I am looking for the recorded IC50 of the following molecule: `Cc1cc([C@H](NC(=O)c2cnccc2-c2ccc(C(F)(F)F)cc2)C(=O)N(C)C)cc(C(F)(F)F)c1`
A: 400

Q: May I ask what IC50 has been recorded for `O=C(N[C@H](C(=O)N1C[C@@H]2[C@@H](CO)[C@@H]2C1)c1cccc(C(F)(F)F)c1)c1ccccc1-c1ccc(C(F)(F)F)cc1` ?
A: 3100

Q: Which IC50 is reported for this molecule? `Cc1ccc([C@H](NC(=O)c2cnccc2-c2ccc(C(F)(F)F)cc2)C(=O)N(C)C)cc1C(F)(F)F`
A: 800

Q: Which IC50 value belongs to `CN(C)C(=O)[C@@H](NC(=O)c1ccccc1-c1ccc(C(F)(F)F)cc1)c1cccc(C2CC2)c1` ?
A: 4200

###

system tested: NKGD2-ULBP6 (Homo sapiens, UniProt P26718)
Sequence (P26718 whole entry): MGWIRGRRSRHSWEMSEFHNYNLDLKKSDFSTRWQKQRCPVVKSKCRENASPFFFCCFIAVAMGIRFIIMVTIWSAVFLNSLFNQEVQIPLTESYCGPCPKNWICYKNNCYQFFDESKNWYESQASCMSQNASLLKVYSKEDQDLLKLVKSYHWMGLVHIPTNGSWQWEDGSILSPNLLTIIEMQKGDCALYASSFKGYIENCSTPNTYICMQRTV
Sequence (Q5VY80 whole entry): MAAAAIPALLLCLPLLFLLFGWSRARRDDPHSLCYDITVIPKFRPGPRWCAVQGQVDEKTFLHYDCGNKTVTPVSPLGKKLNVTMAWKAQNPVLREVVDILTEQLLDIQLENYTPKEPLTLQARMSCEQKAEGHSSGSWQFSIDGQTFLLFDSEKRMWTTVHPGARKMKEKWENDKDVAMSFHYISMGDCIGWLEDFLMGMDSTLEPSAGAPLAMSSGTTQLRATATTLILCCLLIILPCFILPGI
method description: Inhibition of NKG2D (unknown origin)/ULBP6 (unknown origin) protein-protein interaction by cell-based TR-FRET assay
So I've got a bunch of molecules here, and I need their IC50 values.
Number only, in nM; omit the unit.

Q: Name the reported IC50 value associated with the molecule `CN(C)C(=O)[C@@H](NC(=O)c1ccccc1-c1ccc(C(F)(F)F)cc1)c1ccc(Cl)cc1`
A: 5800

Q: Query (molecule): `CN(C)C(=O)[C@@H](NC(=O)c1cnccc1-c1ccc(C(F)(F)F)cc1)c1ccc(Cl)c(Cl)c1` ; field requested: IC50
A: 400

Q: Look at this molecule and give its reported IC50. `CN(C)C(=O)[C@@H](NC(=O)c1ccccc1-c1ccc(C(F)(F)F)cc1)c1cccc(C(F)(F)F)c1`
A: 2700

Q: Request the reported IC50 associated with `CN(C)C(=O)[C@@H](NC(=O)c1cnccc1-c1ccc(C(F)(F)F)cc1)c1cc(Cl)cc(C(F)(F)F)c1`
A: 200

Reference for the values: ChEMBL document CHEMBL5390216
